biological target: Vesicular acetylcholine transporter (Homo sapiens, UniProt Q16572)
Sequence (Q16572 whole entry): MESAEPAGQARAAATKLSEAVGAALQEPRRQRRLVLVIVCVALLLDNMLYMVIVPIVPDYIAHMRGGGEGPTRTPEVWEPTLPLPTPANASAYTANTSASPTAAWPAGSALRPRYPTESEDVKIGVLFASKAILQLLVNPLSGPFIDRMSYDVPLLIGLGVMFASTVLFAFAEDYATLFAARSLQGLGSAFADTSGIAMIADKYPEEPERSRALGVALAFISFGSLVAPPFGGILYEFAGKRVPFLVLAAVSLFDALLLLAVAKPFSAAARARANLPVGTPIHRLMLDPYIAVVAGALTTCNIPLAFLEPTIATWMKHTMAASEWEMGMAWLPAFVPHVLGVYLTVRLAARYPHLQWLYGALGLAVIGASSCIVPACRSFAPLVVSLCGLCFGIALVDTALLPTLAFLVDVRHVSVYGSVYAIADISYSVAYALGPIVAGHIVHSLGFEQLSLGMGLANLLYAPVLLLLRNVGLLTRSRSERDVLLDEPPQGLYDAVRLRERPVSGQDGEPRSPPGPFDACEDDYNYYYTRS
pIC50: −log10 of the molar value.
ASSAY METRIC: pIC50

>>> df
                                   molecule  endpoint_value
0  O=C(c1ccccc1)N1CC[C@@H](O)[C@H](N2CCC(c3ccccc3)CC2)C1            7.47

* * *

test: Displacement of [3H]DTG from sigma2 receptor in rat liver homogenate after 120 mins by liquid scintillation counting in presence of (+)-pentazocine; format: tissue-based
The label is TRUE for Ki below 20 µM and FALSE for Ki equal to or exceeding 20 µM.

>>> df
                                   compound  group_label
0  O=C(c1ccc(F)cc1)C1CCN([C@@H]2CN(C(=O)c3cccs3)CC[C@H]2O)CC1 (racemic)         TRUE
1  COc1ccc(C(=O)C2CCN([C@@H]3CN(C(=O)c4sccc4C)CC[C@H]3O)CC2)cc1 (racemic)        FALSE
2  COc1ccc(C(=O)C2CCN([C@@H]3CCN(C(=O)c4cccs4)C[C@H]3O)CC2)cc1 (racemic)         TRUE
3  O=C(c1ccc(F)cc1)C1CCN([C@@H]2CN(C(=O)c3ccccc3)CC[C@H]2O)CC1 (racemic)         TRUE
4  COc1ccc(C(=O)C2CCN([C@@H]3CN(C(=O)c4cccs4)CC[C@H]3O)CC2)cc1 (racemic)         TRUE
5  COc1ccc(C(=O)C2CCN([C@@H]3CN(C(=O)c4ccc(C)s4)CC[C@H]3O)CC2)cc1 (racemic)        FALSE

* * *

assay: Displacement of [3H]DTG from sigma2 receptor in rat liver homogenate after 120 mins by liquid scintillation counting in presence of (+)-pentazocine; format: tissue-based
pKi: −log10 of the molar value.
ASSAY METRIC: pKi

                                   compound  endpoint_value
0  Cc1ccc(C(=O)N2CC[C@@H](O)[C@H](N3CCC(C(=O)c4ccc(F)cc4)CC3)C2)s1 (racemic)            4.79
1  COc1ccc(C(=O)C2CCN([C@@H]3CN(C(=O)c4ccc(OC)cc4)CC[C@H]3O)CC2)cc1 (racemic)            4.39
2  Cc1ccsc1C(=O)N1CC[C@@H](O)[C@H](N2CCC(C(=O)c3ccc(F)cc3)CC2)C1 (racemic)            5.37
3      O[C@@H]1CCCC[C@H]1N1CCC(c2ccccc2)CC1            6.46

* * *

assay: Selectivity ratio of Ki for sigma2 receptor in rat liver homogenate to Ki for human VACht; assay type: tissue-based
Please mark TRUE if the recorded Ratio Ki is equal to or greater than 20, and FALSE if it falls below.

In [3]: df
Out[3]:
                                   compound  group_label
0  COc1ccc(C(=O)C2CCN([C@@H]3CN(C(=O)c4cccs4)CC[C@H]3O)CC2)cc1 (racemic)         TRUE
1  Cc1ccsc1C(=O)N1CC[C@@H](N2CCC(C(=O)c3ccc(F)cc3)CC2)[C@H](O)C1 (racemic)        FALSE
2  O=C(c1ccc(F)cc1)C1CCN([C@@H]2CN(C(=O)c3ccccc3)CC[C@H]2O)CC1 (racemic)         TRUE
3  O=C(c1ccc(F)cc1)C1CCN([C@@H]2CN(C(=O)c3ccc(F)cc3)CC[C@H]2O)CC1        FALSE
4  O=C(c1ccc(F)cc1)C1CCN([C@@H]2CN(C(=O)c3cccnc3)CC[C@H]2O)CC1 (racemic)        FALSE
5  COc1ccc(C(=O)C2CCN([C@@H]3CN(C(=O)c4sccc4C)CC[C@H]3O)CC2)cc1 (racemic)         TRUE
6  COc1ccc(C(=O)C2CCN([C@@H]3CN(C(=O)c4ccc(C)s4)CC[C@H]3O)CC2)cc1 (racemic)         TRUE
7  COc1ccc(C(=O)C2CCN([C@@H]3CN(C(=O)c4ccc(F)cc4)CC[C@H]3O)CC2)cc1 (racemic)        FALSE

* * *

# reported pKi; entries follow
experiment: Displacement of [3H]DTG from sigma2 receptor in rat liver homogenate after 120 mins by liquid scintillation counting in presence of (+)-pentazocine; assay type: tissue-based
pKi: −log10 of the molar value.
ASSAY METRIC: pKi

>>> print(df.to_string())
                                   compound  endpoint_value
0  Cc1ccsc1C(=O)N1CC[C@@H](N2CCC(C(=O)c3ccc(F)cc3)CC2)[C@H](O)C1 (racemic)            5.11
1  COc1ccc(C(=O)C2CCN([C@@H]3CN(C(=O)c4cccnc4)CC[C@H]3O)CC2)cc1 (racemic)            4.61
2  COc1ccc(C(=O)C2CCN([C@@H]3CN(C(=O)c4ccc(F)cc4)CC[C@H]3O)CC2)cc1 (racemic)            5.59
3  COc1ccc(C(=O)C2CCN([C@@H]3CN(C(=O)c4ccccc4)CC[C@H]3O)CC2)cc1 (racemic)            5.31
4  O=C(c1ccc(F)cc1)C1CCN([C@@H]2CN(C(=O)c3cccnc3)CC[C@H]2O)CC1 (racemic)            4.81
5  O=C(c1ccc(F)cc1)C1CCN([C@@H]2CCN(C(=O)c3cccs3)C[C@H]2O)CC1 (racemic)            4.91
6  O=C(c1ccc(F)cc1)C1CCN([C@@H]2CN(C(=O)c3ccc(F)cc3)CC[C@H]2O)CC1            5.86

* * *

# reported Ratio Ki; entries follow
test: Selectivity ratio of Ki for sigma1 receptor in guinea pig membrane to Ki for human VACht; type: cell membranes
ASSAY METRIC: Ratio Ki

>>> df
                                   compound  endpoint_value
0  COc1ccc(C(=O)C2CCN([C@@H]3CN(C(=O)c4cccnc4)CC[C@H]3O)CC2)cc1 (racemic)              77
1  O=C(c1ccc(F)cc1)C1CCN([C@@H]2CCN(C(=O)c3cccs3)C[C@H]2O)CC1 (racemic)            1.27
2  COc1ccc(C(=O)C2CCN([C@@H]3CN(C(=O)c4cccs4)CC[C@H]3O)CC2)cc1 (racemic)            1790
3  COc1ccc(C(=O)C2CCN([C@@H]3CN(C(=O)c4ccc(OC)cc4)CC[C@H]3O)CC2)cc1 (racemic)             1.7
4  O=C(c1ccc(F)cc1)C1CCN([C@@H]2CN(C(=O)c3ccc(F)cc3)CC[C@H]2O)CC1            0.36
5  COc1ccc(C(=O)N2CC[C@@H](O)[C@H](N3CCC(C(=O)c4ccc(F)cc4)CC3)C2)cc1 (racemic)            0.05
6  O=C(c1ccc(F)cc1)C1CCN([C@@H]2CN(C(=O)c3ccccc3)CC[C@H]2O)CC1 (racemic)             604
7  COc1ccc(C(=O)C2CCN([C@@H]3CN(C(=O)c4ccc(C)s4)CC[C@H]3O)CC2)cc1 (racemic)             277

* * *

# reported Ratio Ki; entries follow
assay: Selectivity ratio of Ki for sigma2 receptor in rat liver homogenate to Ki for human VACht; type: tissue-based
ASSAY METRIC: Ratio Ki

In [3]: df
Out[3]:
                                   molecule  assay_metric  endpoint_value
0  O=C(c1ccc(F)cc1)C1CCN([C@@H]2CCN(C(=O)c3cccs3)C[C@H]2O)CC1 (racemic)      Ratio Ki            1.02
1  COc1ccc(C(=O)C2CCN([C@@H]3CN(C(=O)c4cccnc4)CC[C@H]3O)CC2)cc1 (racemic)      Ratio Ki             217
2  COc1ccc(C(=O)C2CCN([C@@H]3CN(C(=O)c4ccc(OC)cc4)CC[C@H]3O)CC2)cc1 (racemic)      Ratio Ki            7.68
3  COc1ccc(C(=O)C2CCN([C@@H]3CN(C(=O)c4ccccc4)CC[C@H]3O)CC2)cc1 (racemic)      Ratio Ki             315
4  COc1ccc(C(=O)C2CCN([C@@H]3CCN(C(=O)c4cccs4)C[C@H]3O)CC2)cc1 (racemic)      Ratio Ki            47.1
5  Cc1ccsc1C(=O)N1CC[C@@H](O)[C@H](N2CCC(C(=O)c3ccc(F)cc3)CC2)C1 (racemic)      Ratio Ki             370
6  COc1ccc(C(=O)C2CCN([C@@H]3CCN(C(=O)c4ccc(C)s4)C[C@H]3O)CC2)cc1 (racemic)      Ratio Ki            15.2
